- assay.target: S. pyogenes SKKanGAS, kanamycin survival, BacTiterGlo, 6 h
- assay.explanation: S. pyogenes SKKanGAS kanamycin growth inhibitors – SKKanGAS strain, luminescence, dose confirmation, streptokinase promoter inhibitor project, dose response (AID 1902);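 note: lower survival reflects blocked streptokinase promoter driving kanamycin resistance gene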
Activity calls are given as the source filed them.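 Rule for the calls: active = EC50 no more than a set limit of log units above the highest dose; inactive = the rest.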
Write down one outcome, taken from True = active, False = inactive

[
  {
    "compound": "Cc1ccc(C(=O)n2c(N)nc3ccccc32)cc1",
    "classification": "True"
  },
  {
    "compound": "Clc1ccc(C2C3=C(Nc4ncnn42)c2ccccc2CC3)cc1 (stereo unspecified)",
    "classification": "True"
  },
  {
    "compound": "Oc1ccc(Cl)cc1C1=NNC(c2ccc(Cl)cc2)C1 (stereo unspecified)",
    "classification": "True"
  },
  {
    "compound": "C[C@H]1[C@H](C)CC[C@]2(C(=O)O)CC[C@]3(C)C(=CC[C@@H]4[C@@]5(C)CC[C@H](O)C(C)(C)[C@@H]5CC[C@]43C)[C@H]12",
    "classification": "True"
  }
]

Task: Field: outcome | Entry: Cc1cc(NC(=O)CN2C(=O)c3ccccc3C2=O)no1
Output: False

Task: So what was the verdict on COc1cc(NS(=O)(=O)c2ccc3ccccc3c2)c2ncccc2c1 in this test?
Output: True

Task: Fill in: this test's call for Oc1c(C=Nc2cccc3cccnc23)sc2ccccc12 is ___
Output: True

---

- assay.target: S. pyogenes SKKanGAS, kanamycin survival, BacTiterGlo, 6 h
- assay.explanation: S. pyogenes SKKanGAS kanamycin growth inhibitors – SKKanGAS strain, luminescence, dose confirmation, streptokinase promoter inhibitor project, dose response (AID 1902);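 note: lower survival reflects blocked streptokinase promoter driving kanamycin resistance gene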
measure.name: pEC50
# pEC50: negative log10 of molar concentration; output just the value

[
  {
    "compound": "COc1cc(/C=C/C(=O)c2ccc([N+](=O)[O-])o2)ccc1O",
    "pEC50": 5.53
  },
  {
    "compound": "NNc1nc(Nc2ccccc2)nc(Nc2ccccc2)n1",
    "pEC50": 5.39
  },
  {
    "compound": "CC1=C/C(=N\\NC(=S)NCCc2ccccc2)CC(C)(C)C1",
    "pEC50": 5.59
  }
]

Task: Field request: pEC50 | item: CC(C)(C)OC(=O)NCCCC[C@H](NC(=O)c1[nH]cnc1C(=O)Nc1ccc(Cl)cc1)C(=O)OC(C)(C)C
Output: 5.66

Task: Given the compound Nc1nc(NC(=O)/C=C/c2ccc(F)cc2)nn1-c1ccccc1 , what is its reported pEC50?
Output: 5.58

Task: Record request: pEC50 value, item CC1CCCN(S(=O)(=O)c2ccc(C(=O)Nc3nnc(C4CC4)o3)cc2)C1 (stereo not given)
Output: 5.48

---

- assay.target: S. pyogenes SKKanGAS, kanamycin survival, BacTiterGlo, 6 h
- assay.explanation: S. pyogenes SKKanGAS kanamycin growth inhibitors – SKKanGAS strain, luminescence, dose confirmation, streptokinase promoter inhibitor project, dose response (AID 1902);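 active means EC50 no more than a set limit of log units above the highest dose; inactive means the rest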;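 note: lower survival reflects blocked streptokinase promoter driving kanamycin resistance gene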
Output constraint: value belongs to active, inactive

[
  {
    "compound": "COC(=O)c1nc(NC(=S)NC(=O)c2cccs2)sc1C",
    "classification": "active"
  },
  {
    "compound": "CC(=O)NC(c1ccccc1)c1cc(Cl)c2cccnc2c1O (stereo not drawn)",
    "classification": "active"
  },
  {
    "compound": "Cc1cccc(-c2oc3ccccc3c2C#CCCCCO)c1",
    "classification": "active"
  }
]

Task: Test call for this compound, please: Cc1cc(C)n(-c2nc(NC(C)(C)C)nc(NC(C)(C)C)n2)n1
Output: active

Task: What outcome does the record of this test show for C/C(=N\NC(=O)c1cc2ccccc2cc1O)c1cc2ccccc2o1 ?
Output: active

Task: Recorded call for CCC(CC)NC(=O)c1oc2ccccc2c1COc1ccccc1 ?
Output: active
